- TARGET_SYSTEM: Mot3 (UniProt P54785)
- Sequence: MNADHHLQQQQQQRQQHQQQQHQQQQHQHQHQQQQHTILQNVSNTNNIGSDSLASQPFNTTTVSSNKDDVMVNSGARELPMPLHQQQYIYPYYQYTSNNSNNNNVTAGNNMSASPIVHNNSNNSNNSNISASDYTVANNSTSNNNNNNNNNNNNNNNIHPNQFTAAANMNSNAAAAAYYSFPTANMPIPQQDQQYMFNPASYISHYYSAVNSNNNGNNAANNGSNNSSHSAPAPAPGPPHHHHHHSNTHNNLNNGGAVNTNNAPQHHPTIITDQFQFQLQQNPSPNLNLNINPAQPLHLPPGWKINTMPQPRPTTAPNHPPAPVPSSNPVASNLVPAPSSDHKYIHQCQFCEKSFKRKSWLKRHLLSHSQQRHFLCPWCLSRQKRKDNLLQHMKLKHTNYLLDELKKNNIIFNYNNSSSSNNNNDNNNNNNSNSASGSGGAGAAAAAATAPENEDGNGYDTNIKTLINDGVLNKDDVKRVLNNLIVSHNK
- PROCEDURE_TEXT: PBM E-score (8-mer binding enrichment) (E-score (-0.5 to 0.5)); higher = stronger / more preferred TF binding
- TEST_SETTINGS: protein concentration: 200 nM; construct: GST-full length
Over roughly 33,000 sequences, “E-score (-0.5 to 0.5)” has its median near -0.035; the highest 2% begin near 0.34. The sample holds the highest values, similar sequences and a random draw of the others, so the mix is not that of the screen.
So I've got a bunch of sequences here, and I need their PBM E-score values.
Lab note: write the figure by itself, no unit.

Suppose we examine the sequence CGTGTAAA ; what PBM E-score value has been reported?
0.438

Suppose we examine the sequence AAGGCTAT ; what PBM E-score value has been reported?
-0.0295

Suppose we examine the sequence ACTTTACA ; what PBM E-score value has been reported?
0.313

Suppose we examine the sequence ATTTTACA ; what PBM E-score value has been reported?
0.336

Suppose we examine the sequence GTTAGGGA ; what PBM E-score value has been reported?
-0.113

Suppose we examine the sequence AAAGATGC ; what PBM E-score value has been reported?
0.132

Suppose we examine the sequence AAAGGCAA ; what PBM E-score value has been reported?
0.486

Suppose we examine the sequence AAAAGGCA ; what PBM E-score value has been reported?
0.478

Suppose we examine the sequence CGTGTAAC ; what PBM E-score value has been reported?
0.351

Suppose we examine the sequence ATTAGAAC ; what PBM E-score value has been reported?
0.0827

Suppose we examine the sequence TAAAGTCA ; what PBM E-score value has been reported?
0.0168

Suppose we examine the sequence AAATGGGG ; what PBM E-score value has been reported?
-0.133

Suppose we examine the sequence GAAGGCAA ; what PBM E-score value has been reported?
0.489

Suppose we examine the sequence TTAAGGAA ; what PBM E-score value has been reported?
0.398

Suppose we examine the sequence CTTAGGCA ; what PBM E-score value has been reported?
0.444

Suppose we examine the sequence ATGTTTAA ; what PBM E-score value has been reported?
0.285

Suppose we examine the sequence ACGTCCAG ; what PBM E-score value has been reported?
-0.0677

Suppose we examine the sequence CTCACGAG ; what PBM E-score value has been reported?
-0.266

Suppose we examine the sequence AGTGTAAA ; what PBM E-score value has been reported?
0.28

Suppose we examine the sequence ACCCTTTG ; what PBM E-score value has been reported?
-0.147

Suppose we examine the sequence AAAAGGCT ; what PBM E-score value has been reported?
0.0632

Suppose we examine the sequence GTATCCAA ; what PBM E-score value has been reported?
-0.0981

Suppose we examine the sequence AGTGTAAC ; what PBM E-score value has been reported?
0.128

Suppose we examine the sequence AAGGGCAA ; what PBM E-score value has been reported?
0.127

Suppose we examine the sequence CGGAACTA ; what PBM E-score value has been reported?
-0.265

Suppose we examine the sequence AAGATCTC ; what PBM E-score value has been reported?
-0.0117

Suppose we examine the sequence AAAGGCAG ; what PBM E-score value has been reported?
0.282

Suppose we examine the sequence CAACATGG ; what PBM E-score value has been reported?
0.337

Suppose we examine the sequence AGTTACGA ; what PBM E-score value has been reported?
0.138

Suppose we examine the sequence GTTTTACA ; what PBM E-score value has been reported?
0.371

Suppose we examine the sequence CAACATGA ; what PBM E-score value has been reported?
0.352

Suppose we examine the sequence GAACATGA ; what PBM E-score value has been reported?
0.238

Suppose we examine the sequence CCTTTACC ; what PBM E-score value has been reported?
0.102

Suppose we examine the sequence ATTAGGCC ; what PBM E-score value has been reported?
-0.111

Suppose we examine the sequence GAGCGCAC ; what PBM E-score value has been reported?
-0.307

Suppose we examine the sequence ATGTTAAA ; what PBM E-score value has been reported?
0.392

Suppose we examine the sequence ATTAGGCA ; what PBM E-score value has been reported?
0.472

Suppose we examine the sequence ACTGTAAG ; what PBM E-score value has been reported?
0.0605

Suppose we examine the sequence GAAAGGGA ; what PBM E-score value has been reported?
0.0421

Suppose we examine the sequence ACTATCCA ; what PBM E-score value has been reported?
-0.204

Suppose we examine the sequence CCTTTACG ; what PBM E-score value has been reported?
0.172

Suppose we examine the sequence TAACATCA ; what PBM E-score value has been reported?
0.25

Suppose we examine the sequence GGTGTAAA ; what PBM E-score value has been reported?
0.297

Suppose we examine the sequence CGTGTAAG ; what PBM E-score value has been reported?
0.38

Suppose we examine the sequence ATGAACTC ; what PBM E-score value has been reported?
-0.14

Suppose we examine the sequence AGGAACTA ; what PBM E-score value has been reported?
0.38

Suppose we examine the sequence GAAAGGCA ; what PBM E-score value has been reported?
0.469

Suppose we examine the sequence GTAAGGAA ; what PBM E-score value has been reported?
0.366

Suppose we examine the sequence CAGATCGA ; what PBM E-score value has been reported?
-0.213
